The measured values listed here are drawn from the Human Domainome abundance scans (Beltran et al. 2025).

B1: POU domain, class 4, transcription factor 3, residues 185 to 256; numbered along this chain, Q15319 (parent)
chain: RELEAFAERFKQRRIKLGVTQADVGAALANLKIPGVGSLSQSTICRFESLTLSHNNMIALKPVLQAWLEEAE

- Variants of: B1
- assay-details: abundance fitness (aPCA) (normalised: wild type 0, dead -1); higher = more abundant; growth selection in yeast, the domain comes from the species named
- conditions: Homo sapiens
result-type: abundance fitness

> print(dat)
    variant.notation  reported.value
 1              G35F          -0.231
 2              K32Y           -0.12
 3              L52P          -0.984
 4              T43W          -0.382
 5              P34W          -0.571
 6              A29L           -0.21
 7              K32M          -0.048
 8              A26K            0.04
 9              G37E           0.038
10              A26M          -0.095
11              A29W          -0.181
